Assay: clearance of mutant huntingtin inclusions, primary screen, imaging, HeLa Exon1htt(103Q)mCFP, confocal imaging (AID 853);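 further: cells exposed to compound for three days before fixation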
Settings: aggregate imaging, at 1.5 µM; measured here: aggregate grain fluorescence fraction, stronger effect = lower value
Out of some 47,000 compounds screened, about 200 (0.43%) were called active. About 1% were inconclusive and are not listed. The sample as a whole holds a higher share of actives than the screen did.
This section presents molecules with their documented fraction fluorescence in grains values.
Respond with the number and no other words.

Reference set (10 entries):
>  <Molecule>
Cc1cc(Oc2ccccc2)nc(N2CCOCC2)n1

>  <fraction fluorescence in grains>
29.1

$$$$
>  <Molecule>
Cc1ccc(C2NC(=S)NC3=C2N2CCC3CC2)cc1 (centres undefined)

>  <fraction fluorescence in grains>
27.5

$$$$
>  <Molecule>
O=C(NC1(C(F)(F)F)NC(=O)N(Cc2cccnc2)C1=O)c1ccccc1Cl (centres undefined)

>  <fraction fluorescence in grains>
32.6

$$$$
>  <Molecule>
Cc1ccnc(SCCn2c(N(C)Cc3ccccc3)nc3c2c(=O)n(C)c(=O)n3C)n1

>  <fraction fluorescence in grains>
35.6

$$$$
>  <Molecule>
Cc1ccc(-c2nn(-c3ccccc3)cc2/C=N/NC(=O)c2ccc3c(c2)OCO3)cc1

>  <fraction fluorescence in grains>
34

$$$$
>  <Molecule>
CC1(C)CCc2nc(SCc3ccccc3)c(C#N)cc2C1

>  <fraction fluorescence in grains>
21.6

$$$$
>  <Molecule>
COc1ccccc1-c1nnc(SCC(=O)Nc2cc(C)on2)o1

>  <fraction fluorescence in grains>
16.4

$$$$
>  <Molecule>
C=CCn1c(-c2ccc3[nH]c(C)c(C)c3c2)n[nH]c1=S

>  <fraction fluorescence in grains>
89.3

$$$$
>  <Molecule>
Cc1cc(C)cc(OCc2nnc(SCC(=O)Nc3ccccc3)o2)c1

>  <fraction fluorescence in grains>
15

$$$$
>  <Molecule>
CCOC(=O)c1cnc(SCC(=O)Nc2ccccc2C(=O)OC)nc1N

>  <fraction fluorescence in grains>
20.5

$$$$

Q. Kindly indicate its recorded fraction fluorescence in grains. Item: Cn1sc(NC(=O)c2ccccc2)nc1=O
A. 24.3

Q. Kindly indicate its recorded fraction fluorescence in grains. Item: CCCC(=O)Nc1nc2ccc(NC(=O)c3cccnc3)cc2s1
A. 48.5

Q. Kindly indicate its recorded fraction fluorescence in grains. Item: Cc1cc2cc3c(cc2nc1SCC(=O)Nc1c(C)cccc1C)CCC3
A. 26.1

Q. Kindly indicate its recorded fraction fluorescence in grains. Item: CCCCCCC12CCC(C(=O)O)(CC1)CC2
A. 16.8

Q. Kindly indicate its recorded fraction fluorescence in grains. Item: Cc1cc(C)c2c(-n3cccc3)c(NC(=O)OCc3ccccc3)sc2n1
A. 37.4

Q. Kindly indicate its recorded fraction fluorescence in grains. Item: CCOc1ccc(C(=O)Nc2cc(OC)ccc2OC)cc1
A. 47.6

Q. Kindly indicate its recorded fraction fluorescence in grains. Item: CCn1c(CNC(=O)c2ccccc2)nnc1SCC(=O)N1CCN(c2ccccc2)CC1
A. 10.5

Q. Kindly indicate its recorded fraction fluorescence in grains. Item: CC(NC(=O)CSc1nc2c(cc1C#N)CN(C)CC2)c1ccccc1 (centres undefined)
A. 10.8

Q. Kindly indicate its recorded fraction fluorescence in grains. Item: CCN1C(=O)/C(=C2/Sc3ccc(OC)cc3N2C)SC1=Nc1ccc(C)cc1
A. 17.9
